System: HIV-1 FSS RNA (SEQ ID NO: 7)
Test: SPR binding to immobilized biotinylated RNA
Experimental: SPR binding measurements were performed on a Biacore-X instrument (Biacore, Inc., Uppsala, Sweden) with two flow channels (FC1 and FC2). […] Binding measurements were performed by flowing various concentrations of the compounds to be analyzed over the immobilized RNA and recording the reference-subtracted (FC2−FC1) sensorgrams. […]
Provide the reported Residence time (t1/2) for compound binding to RNA of each item.
One number for each entry, in min.

Examples with their reported Residence time (t1/2) for compound binding to RNA follow.
INSERT INTO results (compound, observed) VALUES
  ('CCc1nc2cc3ccccc3cc2cc1C(=O)N1CCC[C@H]1C(=O)N[C@@H](C/C=C\C[C@H](NC(=O)[C@@H]1CCCN1C(=O)c1cc2cc3ccccc3cc2nc1CC)C(=O)N[C@@H](CCCCN)C(=O)NCCCN)C(=O)N[C@@H](CCCCN)C(=O)NCCCN [Compound 4]', 0.7548),
  ('NCCCC[C@H](NC(=O)[C@H](C/C=C\C[C@H](NC(=O)[C@@H]1CCCN1)C(=O)N[C@@H](CCCCN)C(=O)NCCCN)NC(=O)[C@@H]1CCCN1)C(=O)NCCCN [Compound 6]', 0.4493),
  ('CCc1nc2cc3ccccc3cc2cc1C(=O)N[C@@H](CCCCN)C(=O)N[C@@H](C/C=C/C[C@H](NC(=O)[C@H](CCCCN)NC(=O)c1cc2cc3ccccc3cc2nc1CC)C(=O)N1CCC[C@H]1C(=O)NCCCN)C(=O)N1CCC[C@H]1C(=O)NCCCN [Compound 9]', 5.775);

In the following, a different compound is considered.
Q: Please give measured Residence time (t1/2) for compound binding to RNA of the following entry: CCc1nc2cc3ccccc3cc2cc1C(=O)N1CCC[C@H]1C(=O)N[C@@H](C/C=C/C[C@H](NC(=O)[C@@H]1CCCN1C(=O)c1cc2cc3ccccc3cc2nc1CC)C(=O)N[C@@H](CCCCN)C(=O)NCCCN)C(=O)N[C@@H](CCCCN)C(=O)NCCCN [Compound 5]
Ans: 2.939

----------
Tested on: (CCUG)10 RNA (SEQ ID NO: 4)
Test: SPR binding to immobilized biotinylated RNA
Conditions: SPR, (CCUG)10
Kind request: treat 20000 M⁻¹ s⁻¹ as inclusive, so On-rates (kon) at 20000 M⁻¹ s⁻¹ or higher is condition met, anything lower is condition not met.

INSERT INTO results (smiles_string, target_entity, class_assignment) VALUES
  ('NCCCC[C@H](NC(=O)[C@H](C/C=C\C[C@H](NC(=O)[C@@H]1CCCN1)C(=O)N[C@@H](CCCCN)C(=O)NCCCN)NC(=O)[C@@H]1CCCN1)C(=O)NCCCN', '(CCUG)10 RNA (SEQ ID NO: 4)', 'condition not met'),
  ('CCc1nc2cc3ccccc3cc2cc1C(=O)N[C@@H](CCCCN)C(=O)N[C@@H](C/C=C\C[C@H](NC(=O)[C@H](CCCCN)NC(=O)c1cc2cc3ccccc3cc2nc1CC)C(=O)N1CCC[C@H]1C(=O)NCCCN)C(=O)N1CCC[C@H]1C(=O)NCCCN', '(CCUG)10 RNA (SEQ ID NO: 4)', 'condition not met'),
  ('CCc1nc2cc3ccccc3cc2cc1C(=O)N1CCC[C@H]1C(=O)N[C@@H](C/C=C/C[C@H](NC(=O)[C@@H]1CCCN1C(=O)c1cc2cc3ccccc3cc2nc1CC)C(=O)N[C@@H](CCCCN)C(=O)NCCCN)C(=O)N[C@@H](CCCCN)C(=O)NCCCN', '(CCUG)10 RNA (SEQ ID NO: 4)', 'condition met');

Now consider a different compound.
Q: Is the recorded value of On-rates (kon) equal to or greater than 20000 M⁻¹ s⁻¹ for this compound? CCc1nc2cc3ccccc3cc2cc1C(=O)N1CCC[C@H]1C(=O)N[C@@H](C/C=C\C[C@H](NC(=O)[C@@H]1CCCN1C(=O)c1cc2cc3ccccc3cc2nc1CC)C(=O)N[C@@H](CCCCN)C(=O)NCCCN)C(=O)N[C@@H](CCCCN)C(=O)NCCCN
Ans: condition met
